# Tested on: human embryonic lung (HEL) fibroblast cells
# REPORTED_CONDITIONS: minimum cytotoxic concentration, microscopic inspection of cell morphology
ENDPOINT_LABEL: Cytotoxicity MCC

Illustrative cases are given below, each with its answer.
| COMPOUND | Cytotoxicity MCC |
| --- | --- |
| O=C(Cc1csc2nc(-c3ccc(Br)cc3)cn12)NN=C1CCC(c2ccccc2)CC1 (stereo not shown) [Compound 4c] | ≥100 µg/mL |
| O=C(Cc1csc2nc(-c3ccc(Br)cc3)cn12)NN1C(=O)CSC12CCC(c1ccccc1)CC2 (stereo not shown) [Compound 5c] | 20 µg/mL |
| CC1SC2(CCCC2)N(NC(=O)Cc2csc3nc(-c4ccc(Br)cc4)cn23)C1=O (stereo not shown) [Compound 6a] | ≥20 µg/mL |

Req: What Cytotoxicity MCC value was documented for this compound, O=C(Cc1csc2nc(-c3ccc(Br)cc3)cn12)NN1C(=O)CSC12CCCCC2 [Compound 5b] ?
Resp: >100 µg/mL
